Tested on: HepG2
Assay: Cytotoxicity against human HepG2 cells after 48 hrs by MTT assay
Type: functional, cell-based
Conditions: HepG2, 48 h
pIC50: −log10 of the molar value.
reported.metric: pIC50

molecule | value.qualifier | reading
c1ccc2c(c1)ncc1cc3c(cc12)OCO3 | < | 5.00
O=c1c2cc3c(cc2c2ccccc2n1CCc1ccccc1)OCO3 | = | 5.85
CO[C@@H]1C=C[C@@]23c4cc5c(cc4CN(C[C@@H]2O)[C@H]3C1)OCO5 [(+)-HAEMANTHAMINE] | = | 5.32
CO[C@@H]1C=C[C@@]23c4cc5c(cc4C(O)[N+](C)(C[C@@H]2O)[C@H]3C1)OCO5.[Cl-] (mixture of isomers) | = | 5.82
CCOC(=O)CCn1c(=O)c2cc3c(cc2c2ccccc21)OCO3 | < | 5.00
